Target: hMCD (malonyl-CoA decarboxylase) (Homo sapiens)
Sequence (O95822 40-493): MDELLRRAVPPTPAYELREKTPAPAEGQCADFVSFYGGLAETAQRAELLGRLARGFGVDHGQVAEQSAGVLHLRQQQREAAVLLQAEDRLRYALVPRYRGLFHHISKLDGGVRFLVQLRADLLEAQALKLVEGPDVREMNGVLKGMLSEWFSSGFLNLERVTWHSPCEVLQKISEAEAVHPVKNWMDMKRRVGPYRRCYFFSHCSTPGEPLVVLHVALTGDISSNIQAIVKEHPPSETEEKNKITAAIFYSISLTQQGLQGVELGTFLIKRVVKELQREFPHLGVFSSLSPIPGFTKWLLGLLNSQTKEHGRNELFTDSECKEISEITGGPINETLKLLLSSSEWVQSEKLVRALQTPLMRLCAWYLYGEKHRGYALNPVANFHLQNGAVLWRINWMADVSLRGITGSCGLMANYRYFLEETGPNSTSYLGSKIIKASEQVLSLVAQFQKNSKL
Assay: In Vitro MCD Inhibitory Assay
Format: biochemical
Conditions: Table 1, MCD inhibition
pKi: −log10 of the molar value.
Catalogue of pKi readings, one per entry.

Compound	pKi
CCCN(C(=NC#N)Nc1ccc(C(F)(F)F)cc1)c1ccc2nc(S)sc2c1 [CBM-000302075]	8.46
CCOc1ccc(NC(=NC#N)Nc2ccc3nc(S)sc3c2)cc1 [CBM-000302049]	6.35
CCN(C(=NC#N)Nc1ccc(C(N)=O)cc1)c1ccc2nc(S)sc2c1 [CBM-000302189]	8.55
CN(C(=NC#N)Nc1ccc(C(F)(F)F)cc1)c1ccc2nc(S)sc2c1 [CBM-000302167]	8.70
CCCN(C(=NC#N)Nc1ccc(C(=O)O)cc1)c1ccc2nc(S)sc2c1 [CBM-000302112]	8.82
CCCN(/C(=N/C#N)Nc1ccccc1)c1ccc2nc(S)sc2c1 [CBM-000302043]	8.14
CC(C)CN(C(=NC#N)Nc1ccc(OC(F)(F)F)cc1)c1ccc2nc(S)sc2c1 [CBM-000302065]	7.65
CCN(C(=NC#N)NCc1ccc(C(F)(F)F)cc1)c1ccc2nc(S)sc2c1 [CBM-000302290]	7.08
COc1ccc(NC(=NC#N)Nc2ccc3nc(S)sc3c2)cc1 [CBM-000302018]	6.88

---

Catalogue of pKi readings, one per entry.
Target: UniProtKB O95822
Experiment: In Vitro MCD Inhibitory Assay
Format: biochemical
Settings: Table 1, MCD inhibition
pKi: −log10 of the molar value.

Molecule	pKi
CC(C)CN(C(=NC#N)Nc1ccc(C(F)(F)F)cc1)c1ccc2nc(S)sc2c1 [CBM-000302076]	7.08
CC(C)CN(C(=NC#N)Nc1cccc(C(F)(F)F)c1)c1ccc2nc(S)sc2c1 [CBM-000302115]	6.49
CCN(C(=NC#N)NCc1ccc(OC(F)(F)F)cc1)c1ccc2nc(S)sc2c1 [CBM-000302291]	7.31
CCCCNC(=O)c1ccc(NC(=NC#N)N(CC)c2ccc3nc(S)sc3c2)cc1 [CBM-000302244]	8.25
CCCCN(C(=NC#N)Nc1cccc(C(F)(F)F)c1)c1ccc2nc(S)sc2c1 [CBM-000302114]	6.68
COC(=O)c1ccc(NC(=NC#N)N(CC(C)C)c2ccc3nc(S)sc3c2)cc1 [CBM-000302073]	8.33
CCCN(C(=NC#N)Nc1ccc(OC)cc1)c1ccc2nc(S)sc2c1 [CBM-000302050]	7.82
N#C/N=C(\Nc1ccc(OC(F)(F)F)cc1)Nc1ccc2nc(S)sc2c1 [CBM-000302047]	6.62
